target.or.test.system: vanilloid receptor (Rattus norvegicus)
Construct: DRG nerve cells from the primary culture of 2 days were equilibrated; endogenous in cells
Sequence (O35433 whole entry): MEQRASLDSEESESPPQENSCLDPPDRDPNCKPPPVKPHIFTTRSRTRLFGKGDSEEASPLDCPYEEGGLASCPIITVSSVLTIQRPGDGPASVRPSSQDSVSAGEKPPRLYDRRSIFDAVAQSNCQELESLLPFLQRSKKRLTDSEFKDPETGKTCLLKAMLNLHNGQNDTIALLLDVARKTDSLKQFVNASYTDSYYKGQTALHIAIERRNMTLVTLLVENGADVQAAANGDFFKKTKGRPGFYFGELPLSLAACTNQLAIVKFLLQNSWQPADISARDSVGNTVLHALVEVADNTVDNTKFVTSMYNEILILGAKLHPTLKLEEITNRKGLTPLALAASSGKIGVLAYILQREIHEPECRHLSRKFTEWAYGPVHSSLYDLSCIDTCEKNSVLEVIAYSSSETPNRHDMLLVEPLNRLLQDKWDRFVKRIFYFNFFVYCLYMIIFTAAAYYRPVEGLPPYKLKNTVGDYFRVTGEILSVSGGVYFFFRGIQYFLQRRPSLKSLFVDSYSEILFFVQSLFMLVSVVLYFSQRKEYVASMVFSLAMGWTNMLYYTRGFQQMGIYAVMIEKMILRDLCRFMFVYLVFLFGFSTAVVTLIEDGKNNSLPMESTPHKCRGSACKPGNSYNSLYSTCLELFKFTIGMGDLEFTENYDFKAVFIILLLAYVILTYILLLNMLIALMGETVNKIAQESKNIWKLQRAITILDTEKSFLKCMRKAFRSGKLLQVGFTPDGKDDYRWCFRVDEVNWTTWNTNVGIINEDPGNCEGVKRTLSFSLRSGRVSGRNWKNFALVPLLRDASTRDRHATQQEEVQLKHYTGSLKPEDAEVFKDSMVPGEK
experimental.protocol: 45Ca influx test (calcium uptake) in primary cultured DRG neurons, antagonism of capsaicin
assay.context: neonatal SD rat DRG nerve cells; capsaicin 0.5 μM; 45Ca 10 μCi/ml; 10 mins room temperature; read-out: Antagonist Calcium Uptake Test (IC50)
pIC50: −log10 of the molar value.
experimental.endpoint: pIC50

Worked examples, 3 compounds total:
> print(dat)
                              sample.smiles                   target.or.test.system  numeric.value
1  C=Cc1cc(CNC(=O)CCc2ccc(C(C)(C)C)cc2)ccc1NS(C)(=O)=O  vanilloid receptor (Rattus norvegicus)           7.20
2  C=Cc1cc([C@@H](C)NC(=O)Nc2ccc(C(C)(C)C)cc2)ccc1NS(=O)(=O)C=C  vanilloid receptor (Rattus norvegicus)           6.35
3  C=Cc1cc(CNC(=O)/C=C/c2ccc(C(C)(C)C)cc2OCCOC)cc(F)c1NS(C)(=O)=O  vanilloid receptor (Rattus norvegicus)           7.17

a = C=CCOc1cc(C(C)(C)C)ccc1/C=C/C(=O)NCc1cc(F)c(NS(C)(=O)=O)c(C=C)c1
b = C#Cc1cc(CNC(=O)NCc2ccc(C(C)(C)C)cc2)c(Cl)cc1NS(C)(=O)=O
Which entry has a larger number for pIC50, a or b ? Lab note: record the label of whichever item you select.
a

A = C#Cc1cc(CNC(=O)/C=C/c2ccc(C(C)(C)C)cc2)cc(F)c1NS(C)(=O)=O
B = C=Cc1cc(CNC(=O)/C=C/c2ccc(C(C)(C)C)cc2NC(C)C)cc(F)c1NS(C)(=O)=O
Which entry has a larger number for pIC50, A or B ? Lab note: record the label of whichever item you select.
A
